system: M. tuberculosis ATCC 35822; assay: Spot culture growth inhibition assay (SPOTi), MIC; assay type: cell-based, Mycobacterium tuberculosis; details: Mycobacterium tuberculosis, ATCC35822; isoniazid resistant
# MIC listing for each entry below
Property name: MIC

compound="CC(/C=C/c1cc2cc(C)ccc2[nH]c1=O)=N\\NC(N)=S [Compound 11b]" result="3.33 µM"
compound="CC(/C=C/c1cc2cccc(C)c2[nH]c1=O)=N\\NC(N)=S [Compound 11c]" result="0.33 µM"
compound="CC(/C=C/c1cc2ccc(Cl)cc2[nH]c1=O)=N\\NC(N)=S [Compound 11d]" result="6.23 µM"
compound="CC(/C=C/c1cc2cc(Br)ccc2[nH]c1=O)=N\\NC(N)=S [Compound 11e]" result="1.37 µM"

Data credit: paper PMC9854539
